test protocol: Xi-linked GFP reactivating small molecules – imaging, 68-5-11 mouse fibroblasts, cherry-pick, dose response (AID 743394);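 also: sensitizer 5-aza-dC present in the wells at 0.5 mM final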
condition set: 68-5-11 mouse fibroblast XiGFP reporter, % GFP-positive imaging, 3 d; at 19.5 µM (top of the series)
Collected activation values appear next to each entry.
readout type: activation (%)

chem smiles | readout type | value
COCCCn1c(N)c(C(=O)Nc2ccccc2)c2nc3ccccc3nc21 | activation | -0.127
COP(=S)(OC)Oc1ccc(Sc2ccc(OP(=S)(OC)OC)cc2)cc1 | activation | 0.028
O=[N+]([O-])c1ccc(O)c([N+](=O)[O-])c1 | activation | -0.014
C=CCn1c(O)c(C(C)=NCc2ccc3c(c2)OCO3)c(=O)[nH]c1=O | activation | 0.026
